Data origin: patent US8710082B2

- System: VC1673-lux
- method: microbe, parasite or virus in culture
- measurement.setup: Vibrio cholerae, read-out: IC50 of inhibition of VC1673-lux
Some molecules, each annotated with its measured IC50.

| compound.smiles | IC50 |
| --- | --- |
| COc1ccc2[nH]c(SCc3ccc(C)cc3)nc2c1 | < 10 µM |

Here is the next item to consider.
Can you look up the measured IC50 of `COc1ccc2[nH]c(SCc3ccc(Cl)cc3)nc2c1` for me? < 10 µM
